Catalogue of remaining at 2 h readings, one per entry.
Assay: Metabolic stability of the compound in human plasma measured after 2 hrs by LC-MS/MS analysis
Assay type: ADME, cell-free
Conditions: read-out: Stability

compound="C/C(=N\\Nc1nc2ccccc2n1C1CN(C2CCN(c3cccc4c3C(=O)N(C3CCC(=O)NC3=O)C4=O)CC2)C1)c1ccccn1 (configuration not stated)" measured_value="> 50%"

**Query** Fill in reported remaining at 2 h for this entry: C/C(=N\Nc1nc2ccccc2n1C)c1ccccn1
**Result** > 50%

----------
Target: Protein cereblon/Nuclear receptor coactivator 3 (Homo sapiens, UniProt Q9Y6Q9+Q96SW2)
Sequence (Q96SW2 whole entry partner): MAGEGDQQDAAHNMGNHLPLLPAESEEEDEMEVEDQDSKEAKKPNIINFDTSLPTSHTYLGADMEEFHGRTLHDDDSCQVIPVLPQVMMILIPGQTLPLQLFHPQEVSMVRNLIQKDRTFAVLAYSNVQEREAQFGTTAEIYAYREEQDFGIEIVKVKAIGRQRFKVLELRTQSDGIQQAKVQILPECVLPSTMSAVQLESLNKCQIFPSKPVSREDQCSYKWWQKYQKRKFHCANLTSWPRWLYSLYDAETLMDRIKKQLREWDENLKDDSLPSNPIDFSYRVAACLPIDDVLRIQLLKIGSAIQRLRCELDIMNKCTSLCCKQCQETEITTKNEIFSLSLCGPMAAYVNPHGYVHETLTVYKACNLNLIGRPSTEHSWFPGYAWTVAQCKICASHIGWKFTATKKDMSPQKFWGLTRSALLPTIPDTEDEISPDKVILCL
Sequence (Q9Y6Q9 2-1424 limits assumed): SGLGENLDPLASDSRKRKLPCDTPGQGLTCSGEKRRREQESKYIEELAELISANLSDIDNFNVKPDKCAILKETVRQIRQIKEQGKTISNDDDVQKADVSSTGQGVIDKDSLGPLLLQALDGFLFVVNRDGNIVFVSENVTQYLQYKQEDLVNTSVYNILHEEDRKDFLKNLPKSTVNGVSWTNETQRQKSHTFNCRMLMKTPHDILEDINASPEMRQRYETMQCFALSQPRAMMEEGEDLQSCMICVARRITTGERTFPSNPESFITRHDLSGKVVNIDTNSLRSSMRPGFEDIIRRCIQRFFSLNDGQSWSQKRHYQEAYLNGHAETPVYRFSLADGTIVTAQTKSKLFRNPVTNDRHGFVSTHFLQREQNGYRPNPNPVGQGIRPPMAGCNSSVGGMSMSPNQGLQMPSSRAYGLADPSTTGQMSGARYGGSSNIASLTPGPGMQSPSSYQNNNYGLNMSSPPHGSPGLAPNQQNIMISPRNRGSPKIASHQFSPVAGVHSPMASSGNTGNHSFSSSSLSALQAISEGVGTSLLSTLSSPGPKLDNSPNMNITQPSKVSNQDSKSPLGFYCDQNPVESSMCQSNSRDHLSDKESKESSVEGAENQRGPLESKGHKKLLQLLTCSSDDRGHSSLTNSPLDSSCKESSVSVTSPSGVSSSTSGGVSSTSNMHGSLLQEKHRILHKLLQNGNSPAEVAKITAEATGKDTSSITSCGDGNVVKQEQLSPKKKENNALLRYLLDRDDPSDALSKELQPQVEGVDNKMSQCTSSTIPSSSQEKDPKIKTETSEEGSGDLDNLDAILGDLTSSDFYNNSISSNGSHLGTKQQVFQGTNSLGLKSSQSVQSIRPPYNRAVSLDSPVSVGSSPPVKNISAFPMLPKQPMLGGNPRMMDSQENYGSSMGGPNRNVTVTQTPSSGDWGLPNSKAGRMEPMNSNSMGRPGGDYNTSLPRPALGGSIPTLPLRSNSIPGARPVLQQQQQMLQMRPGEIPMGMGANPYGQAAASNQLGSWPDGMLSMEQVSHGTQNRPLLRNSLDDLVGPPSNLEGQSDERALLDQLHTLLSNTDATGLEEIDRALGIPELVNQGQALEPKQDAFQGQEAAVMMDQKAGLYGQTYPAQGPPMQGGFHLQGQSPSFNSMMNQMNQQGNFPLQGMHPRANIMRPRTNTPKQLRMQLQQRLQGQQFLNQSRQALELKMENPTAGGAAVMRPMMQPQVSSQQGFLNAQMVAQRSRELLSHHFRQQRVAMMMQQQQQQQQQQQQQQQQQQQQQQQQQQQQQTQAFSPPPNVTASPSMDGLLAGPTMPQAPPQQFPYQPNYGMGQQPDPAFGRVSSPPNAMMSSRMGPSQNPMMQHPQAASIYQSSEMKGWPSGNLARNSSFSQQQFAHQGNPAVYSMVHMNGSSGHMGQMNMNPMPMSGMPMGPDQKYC
Assay: PROTAC activity at CRBN/SRC-3 in human MCF7 cells assessed as induction of ER-alpha degradation at 1 uM incubated for 24 hrs by immunoblot analysis relative to control
Format: cell-based
observable: Activity

For orientation, consider the following solved cases.
molecule="C/C(=N\\Nc1nc2ccccc2n1CCNC(=O)CN1CCC(CN2CCN(c3ccc4c(c3)C(=O)N(C3CCC(=O)NC3=O)C4=O)CC2)CC1)c1ccccn1 (configuration not stated)" measured_value=30%
molecule="C/C(=N\\Nc1nc2ccccc2n1C1CN(C(=O)C2CCN(c3cccc4c3C(=O)N(C3CCC(=O)NC3=O)C4=O)CC2)C1)c1ccccn1 (configuration not stated)" measured_value=15%
molecule="C/C(=N\\Nc1nc2ccccc2n1C1CN(c2cccc3c2C(=O)N(C2CCC(=O)NC2=O)C3=O)C1)c1ccccn1 (configuration not stated)" measured_value=16%
molecule="C/C(=N\\Nc1nc2ccccc2n1CC1CCN(c2ccc3c(c2)C(=O)N(C2CCC(=O)NC2=O)C3=O)CC1)c1ccccn1 (configuration not stated)" measured_value=34%

Please examine the following record next.
**Query** Report Activity from Protein cereblon/Nuclear receptor coactivator 3 (Homo sapiens, UniProt Q9Y6Q9+Q96SW2) testing of C/C(=N\Nc1nc2ccccc2n1C1CN(C(=O)C2CN(c3cccc4c3C(=O)N(C3CCC(=O)NC3=O)C4=O)C2)C1)c1ccccn1 (configuration not stated)
**Result** 5%

----------
Test system: MCF7
Assay: Antiproliferative activity against human MCF7 cells overexpressing EGFR assessed as inhibition of cell growth by CCK-8 assay
Type: functional, cell-based
observable: IC50 (nM)
Provide the reading as a plain figure in nM.

**Query** Fill in reported IC50 for this entry: C/C(=N\Nc1nc2ccccc2n1C1CN(C2CCN(c3cccc4c3C(=O)N(C3CCC(=O)NC3=O)C4=O)CC2)C1)c1ccccn1 (stereo unspecified)
**Result** 70

----------
Experiment: Tmax in Balb/c mouse at 20 mg/kg, po by LC-MS/MS analysis
Format: ADME, organism-based
Settings: in vivo
observable: Tmax (min)
Provide the reading as a plain figure in min.

**Query** Fill in reported Tmax for this entry: C/C(=N\Nc1nc2ccccc2n1C1CN(C2CCN(c3cccc4c3C(=O)N(C3CCC(=O)NC3=O)C4=O)CC2)C1)c1ccccn1 (stereo unspecified)
**Result** 19.8

----------
Target: Protein cereblon/Nuclear receptor coactivator 3 (Homo sapiens, UniProt Q9Y6Q9+Q96SW2)
Assay: PROTAC activity at CRBN/SRC-3 in human MCF7 cells assessed as induction of ER-alpha degradation at 1 uM incubated for 24 hrs by immunoblot analysis relative to control
Type: cell-based
Activity calls are given as the source filed them. The calls are words filed in the database; no cut-off is given here.
observable: Activity

molecule="C/C(=N\\Nc1nc2ccccc2n1CC1CN(c2ccc3c(c2)C(=O)N(C2CCC(=O)NC2=O)C3=O)C1)c1ccccn1 (configuration not stated)" observable=Activity measured_value=15%
molecule="C/C(=N\\Nc1nc2ccccc2n1C1CN(c2ccc3c(c2)C(=O)N(C2CCC(=O)NC2=O)C3=O)C1)c1ccccn1 (configuration not stated)" observable=Activity measured_value=inactive
molecule="C/C(=N\\Nc1nc2ccccc2n1C1CN(C2CCN(c3cccc4c3C(=O)N(C3CCC(=O)NC3=O)C4=O)CC2)C1)c1ccccn1 (configuration not stated)" observable=Activity measured_value=85%
molecule="C/C(=N\\Nc1nc2ccccc2n1CCNC(=O)CN1CCC2(CC1)CCN(c1ccc3c(c1)C(=O)N(C1CCC(=O)NC1=O)C3=O)CC2)c1ccccn1 (configuration not stated)" observable=Activity measured_value=inactive
molecule="C/C(=N\\Nc1nc2ccccc2n1CCNC(=O)C1CC2(CCN(c3ccc4c(c3)C(=O)N(C3CCC(=O)NC3=O)C4=O)CC2)C1)c1ccccn1 (configuration not stated)" observable=Activity measured_value=inactive
molecule="C/C(=N\\Nc1nc2ccccc2n1CC1CCN(C(=O)CCCCCCCNc2cccc3c2CN(C2CCC(=O)NC2=O)C3=O)CC1)c1ccccn1 (configuration not stated)" observable=Activity measured_value=39%

Please examine the following record next.
**Query** Fill in reported Activity for this entry: C/C(=N\Nc1nc2ccccc2n1CC1CN(c2cccc3c2C(=O)N(C2CCC(=O)NC2=O)C3=O)C1)c1ccccn1 (configuration not stated)
**Result** 26%
